experiment: AUC (infinity) in BALB-C mouse at 8 mg/kg, po by LC-MS/MS analysis; assay type: ADME, organism-based; design: dose 8 mg/kg, route oral, time infinity; settings: in vivo
Readout: AUC(0-inf)

-- ask Given the molecule CS(=O)(=O)N1CCN(Cc2cn3cc(-c4cnc(N)nc4)nc(N4CCOCC4)c3n2)CC1 , what is its reported AUC(0-inf)?
-- reply 12600 ng·h/mL

* * *

assay: Half-life in BALB-C mouse at 5 mg/kg, po by LC-MS/MS analysis; assay type: ADME, organism-based; details: in vivo
Readout: half-life (h)
Just the number in h, nothing appended.

-- ask Given the compound CS(=O)(=O)N1CCN(Cc2nc3c(N4CCOCC4)nc(-c4cnc(N)nc4)c(Cl)n3n2)CC1 , what is its reported half-life?
-- reply 2.7

Recorded values, source ChEMBL document CHEMBL4177600.
